Hello, the source for this data is ChEMBL document CHEMBL4513139, in case you need it.

test system: Pseudomonas aeruginosa; test: microbe, parasite or virus in culture; details: ATCC 27853, 18 h, ASSAY_TEST Inhibition of Bacterial Growth, detection method Absorption (OD600), MEDIA CAMHB, plate type 384well, NBS, CORNING #3640
Description: Antibacterial activity against Pseudomonas aeruginosa ATCC 27853 (CO-ADD:GN_042); MIC in CAMBH media using NBS plates, by OD(600)
endpoint: MIC

May I ask what MIC has been recorded for `CN(C)c1ccc(/C=C/c2ccc(C(=O)Nc3cc(C(=O)Nc4cc(C(=O)NCCN5CCOCC5)n(C)c4)n(C)c3)cn2)cc1.O=C(O)C(F)(F)F` ?
> 32 µg/mL

Others:
So what does the record say about MIC for `COc1ccc(/C=C/c2ccc(C(=O)Nc3cc(C(=O)Nc4cc(C(=O)NCCN5CCC(OC)CC5)n(C)c4)n(C)c3)cc2)cc1.O=C(O)C(F)(F)F` ?
> 32 µg/mL

Could you tell me which MIC is on file for `CN(C)CCNC(=O)c1cc(NC(=O)c2cc(NC(=O)c3ccc(/C=C/c4cnc5ccccc5c4)cc3)cn2C)cn1C.O=C(O)C(F)(F)F.O=C(O)C(F)(F)F` ?
> 32 µg/mL

----------
tested on: HEK293; assay: cells; assay type: functional, Homo sapiens, ATCC CRL1573; conditions: Homo sapiens, ATCC CRL1573, HEK293; ASSAY_TEST Inhibition of Cell Viability; detection method Resazurin; Fluorescence (ex560/em590); MEDIA DMEM with 10% FBS; plate type 384well; TC; CORNING #3712; time 18 hr; read-out: CC50
The entries below are paired with their reported CC50.
Only the number, expressed in µg/mL, is required.

Missing value: CC50, HEK293, entry `CC(=O)/C=C/c1ccc(C(=O)Nc2cc(C(=O)Nc3cc(C(=O)NCCN4CCOCC4)n(C)c3)n(C)c2)cc1.O=C(O)C(F)(F)F` . Fill in?
7.01

----------
system: Staphylococcus aureus; experiment: microbe, parasite or virus in culture; conditions: ATCC 43300, 18 h, ASSAY_TEST Inhibition of Bacterial Growth, detection method Absorption (OD600), MEDIA CAMHB, plate type 384well, NBS, CORNING #3640
Description: Antibacterial activity against Staphylococcus aureus MRSA ATCC 43300 (CO-ADD:GP_020); MIC in CAMBH media, using NBS plates, by OD(600)
Below, each of the compounds is paired with its reported MIC value.

Consider the worked cases shown below.
Give the measured MIC of `Cn1cc(NC(=O)c2ccc(/C=C/c3cnc4ccccc4c3)cc2)cc1C(=O)Nc1cc(C(=O)NCCN2CCOCC2)n(CCCc2ccccc2)c1.O=C(O)C(F)(F)F.O=C(O)C(F)(F)F` .
> 32 µg/mL

Data request, read-out MIC, for `CN(C)CCNC(=O)c1cc(NC(=O)c2cc(NC(=O)c3ccc(/C=C/c4ccc(N(C)C)cc4)nc3)cn2C)cn1C.O=C(O)C(F)(F)F.O=C(O)C(F)(F)F`
2 µg/mL

What does the data say about its MIC? Entry: `CN(C)CCCn1cnc(NC(=O)c2cc(NC(=O)c3cc(NC(=O)c4cc5ccccc5cn4)cn3C)cn2C)c1.O=C(O)C(F)(F)F`
> 32 µg/mL

Quick one: MIC of `COc1ccc(/C=C/c2ccc(C(=O)Nc3cc(C(=O)Nc4cc(C(=O)NCCN5CCC(O)CC5)n(C)c4)n(C)c3)cn2)cc1.O=C(O)C(F)(F)F.O=C(O)C(F)(F)F` ?
> 32 µg/mL

For `Cn1cc(NC(=O)c2ccc(/C=C/c3ccncc3)cc2)cc1C(=O)Nc1cc(C(=O)NCCN2CCOCC2)n(CCCCl)c1.O=C(O)C(F)(F)F.O=C(O)C(F)(F)F` , what is its reported MIC?
> 32 µg/mL

We next turn to a different compound, shown below.
Entry under review: `CC(=O)Nc1cc(C(=O)Nc2cc(C(=O)NCCC(=N)N)n(C)c2)n(C)c1.O=C(O)C(F)(F)F` . Reported MIC?
> 32 µg/mL

----------
system: HEK293; experiment: cells; assay type: functional, Homo sapiens, ATCC CRL1573; conditions: Homo sapiens, ATCC CRL1573, HEK293; ASSAY_TEST Inhibition of Cell Viability; detection method Resazurin; Fluorescence (ex560/em590); MEDIA DMEM with 10% FBS; plate type 384well; TC; CORNING #3712; time 18 hr; read-out: CC50
Entries and their CC50 values follow.
Field format: number, assumed µg/mL, no unit text.

Can you share its CC50? I mean this compound: `Cn1cc(NC(=O)c2ccc(/C=C/c3cnc4ccccc4c3)cc2)cc1C(=O)NCCN1CCOCC1.O=C(O)C(F)(F)F.O=C(O)C(F)(F)F`
2.42

What value of CC50 has been reported for the following compound? `Cn1cc(NC(=O)c2cc(NC(=O)c3ccc(/C=C/c4cnc5ccccc5c4)cc3)cn2C)cc1C(=O)NCC[N+]1([O-])CCCCC1.O=C(O)C(F)(F)F`
2.97

Given the entry `CN(C)CCNC(=O)c1cc(NC(=O)c2cc(NC(=O)c3ccc(/C=C/c4ccc(N(C)C)cc4)nc3)cn2C)cn1C.O=C(O)C(F)(F)F` , report its measured CC50.
2.17

Which CC50 is reported for this compound? `CN(C)CCCn1cnc(NC(=O)c2cc(NC(=O)c3cc(NC(=O)c4cc5ccccc5cn4)cn3C)cn2C)c1.O=C(O)C(F)(F)F`
7.3

Suppose we examine the compound `COc1cccc(C(=N)Nc2cc(C(=O)Nc3nc(C(=O)NCCN4CCOCC4)c(CCc4ccccc4)s3)n(C)c2)c1.O=C(O)C(F)(F)F.O=C(O)C(F)(F)F` ; what CC50 value has been reported?
2.59

Shifting focus to the compound that follows.
Fill in the blank: the reported CC50 of `COc1cccc(/C=C/c2ccc(C(=O)Nc3cc(C(=O)Nc4cc(C(=O)NCCN5CCOCC5)n(C(C)C)c4)n(C)c3)cc2)c1.O=C(O)C(F)(F)F` is ____.
4.31

----------
test system: Staphylococcus aureus; assay: microbe, parasite or virus in culture; details: ATCC 43300, 18 h, ASSAY_TEST Inhibition of Bacterial Growth, detection method Absorption (OD600), MEDIA CAMHB, plate type 384well, NBS, CORNING #3640
endpoint: MIC

Please report the recorded MIC for `Cc1ncc(Cn2cc(CCOS(C)(=O)=O)nn2)c(N)n1` .
> 32 µg/mL

Please report the recorded MIC for `COC1CCN(CCNC(=O)c2cc(NC(=O)c3cc(NC(=O)c4ccc(/C=C/c5cnc6ccccc6c5)cc4)cn3C)cn2C)CC1` .
≤ 0.25 µg/mL

Endpoint output: MIC of `CC(=N)Nc1cc(C(=O)Nc2cc(C(=O)Nc3cc(C(=O)NCCCN(C)C)n(C)c3)n(C)c2)n(C)c1.O=C(O)C(F)(F)F.O=C(O)C(F)(F)F` . Value?
> 32 µg/mL

Further cases:
Reported MIC for `CC(C)CCc1sc(NC(=O)c2cc(NC(=O)c3cc(NC(=O)c4sc(N)nc4C(F)(F)F)cn3C)cn2C)nc1C(=O)NCCCN(C)C.O=C(O)C(F)(F)F` : what is it?
8 µg/mL

Would you mind telling me what MIC value was observed for `Cn1cc(NC(=O)c2cc(NC(=O)c3ccc(/C=C/c4ccc5nonc5c4)cc3)cn2C)cc1C(=O)NCCN1CCOCC1.O=C(O)C(F)(F)F` ?
> 32 µg/mL

Which MIC is reported for this compound? `Cn1cc(NC(=O)c2cc(NC(=O)c3ccc(/C=C/C4CC4)cc3)cn2C)cc1C(=O)NCCN1CCOCC1.O=C(O)C(F)(F)F`
> 32 µg/mL

Name the reported MIC value associated with the compound `COCCOC1CCN(CCNC(=O)c2cc(NC(=O)c3cc(NC(=O)c4ccc(/C=C/c5ccc(OC)cc5)nc4)cn3C)cn2C)CC1`
2 µg/mL

----------
test system: HEK293; experiment: cells; format: functional, Homo sapiens, ATCC CRL1573; conditions: Homo sapiens, ATCC CRL1573, HEK293; ASSAY_TEST Inhibition of Cell Viability; detection method Resazurin; Fluorescence (ex560/em590); MEDIA DMEM with 10% FBS; plate type 384well; TC; CORNING #3712; time 18 hr; read-out: CC50
endpoint: CC50 (µg/mL)
Supply the numeric figure in µg/mL, leaving out any unit text.

Item `CC(C)CCn1cc(NC(=O)c2cc(NC(=O)c3cc(NC(=N)c4cnc5ccccc5c4)cn3C)cn2C)cc1C(=O)NCCCN(C)C.O=C(O)C(F)(F)F.O=C(O)C(F)(F)F` has what recorded CC50?
11.6

***
Name the reported CC50 value associated with the compound `CC(C)CCc1sc(NC(=O)c2cc(NC(=O)c3cc4ccccc4cn3)cn2C)nc1C(=O)NCCCN(C)C.O=C(O)C(F)(F)F`
2.17

Bench note: what CC50 did `COc1ccc(C(=N)Nc2cc(C(=O)Nc3nc(C(=O)NCCN4CCOCC4)c(CCc4ccccc4)s3)n(C)c2)cc1.O=C(O)C(F)(F)F.O=C(O)C(F)(F)F` show?
8.88

# input compound: `COc1ccc(/C=C/c2ccc(C(=O)Nc3cc(C(=O)Nc4nc(C(=O)NCCN5CCOCC5)c(C5CCCCC5)s4)n(C)c3)cn2)cc1.O=C(O)C(F)(F)F.O=C(O)C(F)(F)F` ; wanted: its CC50
4.56

Reported CC50, compound `COc1cccc(/C=C/c2ccc(C(=O)Nc3cc(C(=O)Nc4cc(C(=O)NCCN5CCOCC5)n(C)c4)n(C)c3)cc2)c1.O=C(O)C(F)(F)F` : ____
3.75

Data request, read-out CC50, for `Cn1cc(NC(=O)c2ccc(/C=C/c3cnc4ccccc4c3)cc2)cc1C(=O)Nc1cc(C(=O)NCCN2CCOCC2)n(CCCN=[N+]=[N-])c1.O=C(O)C(F)(F)F.O=C(O)C(F)(F)F`
4.48

Which value of CC50 has been reported for `COc1cccc(/C=C/c2ccc(C(=O)Nc3cc(C(=O)Nc4cc(C(=O)NCCN5CCCCC5)n(CCCc5ccccc5)c4)n(C)c3)cc2)c1.O=C(O)C(F)(F)F` in the records?
16
